biological target: T1, huNav1.7α + β1-β2-β3 (human, UniProt Q15858 1-1988; A5A6L6 19-218; O60939 30-215; Q2KI11 23-215); experiment: binding FACS, CHO FlpIn cells
T1 construct: Cell line (CHO FlpIn, HEK FlpIn, transient HEK293T) is named under assay; also called huNav1.7-beta1-beta2-beta3; human Nav1.7α with Navβ1, Navβ2 and Navβ3
Quantity Measured: EC50 (nM)

F010301867 (VHH, A28Q vs F0103464B09 (Kabat)) VHH: EVQLVESGGGLVQPGGSLRLSCATTSRQFIRDVFTGWYRRVPGKERELVARIYNGGNTNYADFAKGRFSISRDNAKKMVTLRMSNLKPEDTGVYYCLFSGTINTGREYRSGDYWGQGTLVTVSS; 4.8
F010302360 (VHH) VHH: EVQLVESGGGVVQPGGSLRLSCAASHRQFIRDVFTGWYRQAPGKQRELVARIYNEGNTQYADSVKGRFTISRDNAKKTVYLQMNSLRPEDTALYYCLFSGTISTGREYRSGDYWGQGTLVTVSS; 3.5

I. F010302359 (VHH) VHH: EVQLVESGGGVVQPGGSLRLSCAASSRQFIRDVFTGWYRQAPGKQRELVARIYESGNTQYADSVKGRFTISRDNAKKTVYLQMNSLRPEDTALYYCLFSGTISTGREYRSGDYWGQGTLVTVSS
II. F010301607 (VHH, Y100fA vs F0103362B08 (Kabat)) VHH: EVQLVESGGGLVQAGGSLRLSCAASVRPFSTSAMGWFRQAPEKEREAVAGILWNGIVTYYADSVKGRFTISRDNAKNEVYLQMNKLKPEDTAVYYCALDRDYGGRSFSAAEYEYWGQGTLVTVSS
Param metric = EC50; output whichever of I , II has the minimum value. // output: label of the selected item I
(I: 6.4 nM, II: 90 nM)

I. F010302334 (VHH) VHH: EVQLVESGGGVVQPGGSLRLSCAASSRQFIRDVFTGWYRRAPGKQRELVARIYNEGNTQYADSAKGRFTISRDNAKKTVYLQMNSLRPEDTALYYCLFSGTISTGREYRSGDYWGQGTLVTVSS
II. F010301618 (VHH, Y102H vs F0103362B08 (Kabat)) VHH: EVQLVESGGGLVQAGGSLRLSCAASVRPFSTSAMGWFRQAPEKEREAVAGILWNGIVTYYADSVKGRFTISRDNAKNEVYLQMNKLKPEDTAVYYCALDRDYGGRSFSAYEYEHWGQGTLVTVSS
III. F010301578 (VHH, S30G vs F0103362B08 (Kabat)) VHH: EVQLVESGGGLVQAGGSLRLSCAASVRPFGTSAMGWFRQAPEKEREAVAGILWNGIVTYYADSVKGRFTISRDNAKNEVYLQMNKLKPEDTAVYYCALDRDYGGRSFSAYEYEYWGQGTLVTVSS
IV. F010301878 (VHH, G54E vs F0103464B09 (Kabat)) VHH: EVQLVESGGGLVQPGGSLRLSCATTSRAFIRDVFTGWYRRVPGKERELVARIYNEGNTNYADFAKGRFSISRDNAKKMVTLRMSNLKPEDTGVYYCLFSGTINTGREYRSGDYWGQGTLVTVSS
Your job: order these 4 records by EC50, ascending. Write the labels out in the order the request specifies. I, IV, III, II

P. F010301888 (VHH, S26H vs F0103464B09 (Kabat)) VHH: EVQLVESGGGLVQPGGSLRLSCATTHRAFIRDVFTGWYRRVPGKERELVARIYNGGNTNYADFAKGRFSISRDNAKKMVTLRMSNLKPEDTGVYYCLFSGTINTGREYRSGDYWGQGTLVTVSS
Q. F010301612 (VHH, Y100fT vs F0103362B08 (Kabat)) VHH: EVQLVESGGGLVQAGGSLRLSCAASVRPFSTSAMGWFRQAPEKEREAVAGILWNGIVTYYADSVKGRFTISRDNAKNEVYLQMNKLKPEDTAVYYCALDRDYGGRSFSATEYEYWGQGTLVTVSS
API: POST /compare with P and Q ; response names the item with higher EC50. Give the label under which the chosen entry appears. Q

1. F010302364 (VHH) VHH: EVQLVESGGGVVQPGGSLRLSCAASHRAFIRDLFTGWYRQAPGKQRELVARIYESGNTNYADSVKGRFTISRDNAKKTVYLQMNSLRPEDTALYYCLFSGTISTGREYRSGDYWGQGTLVTVSS
2. F010302354 (VHH) VHH: EVQLVESGGGVVQPGGSLRLSCAASHRAFIRDVFTGWYRRAPGKQRELVARIYESGNTQYADSVKGRFTISRDNAKKTVYLQMNSLRPEDTALYYCLFSGTISTGREYRSGDYWGQGTLVTVSS
3. F010301617 (VHH, F100cQ vs F0103362B08 (Kabat)) VHH: EVQLVESGGGLVQAGGSLRLSCAASVRPFSTSAMGWFRQAPEKEREAVAGILWNGIVTYYADSVKGRFTISRDNAKNEVYLQMNKLKPEDTAVYYCALDRDYGGRSQSAYEYEYWGQGTLVTVSS
# sort list by recorded EC50, greatest to least Rank them, then answer with their labels in that order. 3, 1, 2
(3: 170 nM, 1: 7.2 nM, 2: 4.2 nM)

Data origin: patent US20240002497A1
